system: HLA-B*08:01
test description: IEDB peptide-MHC binding, purified MHC/competitive/radioactivity; filed as Kd, often an IC50 or EC50 that approximates it; bounds were set here for any values at or beyond the usual limits of such assays
condition parameters: source organism: Dengue virus 2 Jamaica/1409/1983
assay readout: Kd (nM)
One number for each entry, in nM.

Previously resolved entries follow.
IGMNSRSTSL: 107
TKQTGSASSM: 1440
GPLKLFMAL: 19.3

Here is the next item to consider.
Input: Quick one: Kd for RREEEEAGVL ?
Output: 2160

* * *

system: HLA-A*02:01
test description: IEDB peptide-MHC binding, purified MHC/direct/fluorescence; filed as Kd, often an IC50 or EC50 that approximates it; bounds were set here for any values at or beyond the usual limits of such assays
condition parameters: source organism: Lyssavirus rabies
pKd: −log10 of the molar value.
assay readout: pKd

Input: Quick one: pKd for RQMKSGGRF ?
Output: ≤ 4.70

* * *

system: HLA-A*03:01
test description: IEDB peptide-MHC binding, purified MHC/direct/fluorescence; filed as Kd, often an IC50 or EC50 that approximates it; bounds were set here for any values at or beyond the usual limits of such assays
condition parameters: source organism: Marburg virus - Musoke, Kenya, 1980
Would you mind telling me the reported pKd of each entry?
Give bare numbers, as −log10 of the molar value.

IISTNTLGK: 6.60

Here is the next item to consider.
Input: Which pKd is reported with HLA-A*03:01 for this entry: TVLEFILQK ?
Output: 6.85

* * *

system: HLA-A*29:02
test description: IEDB peptide-MHC binding, purified MHC/competitive/radioactivity; filed as Kd, often an IC50 or EC50 that approximates it; bounds were set here for any values at or beyond the usual limits of such assays
condition parameters: source organism: SARS coronavirus Tor2
pKd: −log10 of the molar value.
Would you mind classing the entries by pKd? Ranges: low end: < 6; middle: ≥ 6 and < 7; high end: ≥ 7

DEEGNLLDSY: low end

Now consider a different sequence.
Input: // bin(item) where item = HHANEYRQY
Output: low end

* * *

system: HLA-A*01:01
test description: IEDB peptide-MHC binding, purified MHC/competitive/radioactivity; filed as Kd, often an IC50 or EC50 that approximates it; bounds were set here for any values at or beyond the usual limits of such assays
condition parameters: source organism: Dengue virus 1 Brazil/97-11/1997
assay readout: pKd
One number for each entry, as −log10 of the molar value.

LTAAVLMLV: 4.75

Here is the next item to consider.
Input: Which pKd is reported with HLA-A*01:01 for this entry: NATDTWVTY ?
Output: 6.84

* * *

system: HLA-B*39:01
test description: IEDB peptide-MHC binding, purified MHC/competitive/fluorescence; filed as Kd, often an IC50 or EC50 that approximates it; bounds were set here for any values at or beyond the usual limits of such assays
condition parameters: source organism: Cryptosporidium parvum Iowa II
assay readout: Kd

Input: Quick one: Kd for MSQMPPHPY ?
Output: ≥ 20 µM

* * *

system: HLA-B*44:02
test description: IEDB peptide-MHC binding, purified MHC/competitive/radioactivity; filed as Kd, often an IC50 or EC50 that approximates it; bounds were set here for any values at or beyond the usual limits of such assays
condition parameters: source organism: Mammarenavirus lassaense
assay readout: Kd (nM)
One number for each entry, in nM.

Input: Quick one: Kd for KEAYCQEFLL ?
Output: 1260

Measured values drawn from the Immune Epitope Database (IEDB) for this set.
